test system: OVCAR-3 ovarian cancer cell line
Rule for this label: satisfied means GI50 is less than 20 nM; not satisfied means GI50 is at least 20 nM.

Sample answers from the record:
# smiles.structure, system, label
measured = [
    ("Cc1cnc2[nH]c(-c3cccc(F)c3)cc(=O)c2c1", "OVCAR-3 ovarian cancer cell line", "satisfied"),
    ("Cc1cccc(-c2cc(=O)c3c(C)ccnc3[nH]2)c1", "OVCAR-3 ovarian cancer cell line", "not satisfied"),
    ("Cc1ccc2c(n1)N=C(c1ccc3ccccc3c1)CC2=O", "OVCAR-3 ovarian cancer cell line", "not satisfied"),
    ("Cc1cnc2c(c1)C(=O)CC(c1cccc3ccccc13)=N2", "OVCAR-3 ovarian cancer cell line", "satisfied"),
    ("Cc1cccc(C2=Nc3nc(C)ccc3C(=O)C2)c1", "OVCAR-3 ovarian cancer cell line", "not satisfied"),
    ("Cc1ccc2c(n1)N=C(c1ccc(F)cc1)CC2=O", "OVCAR-3 ovarian cancer cell line", "not satisfied"),
    ("Cc1cc(C)c2c(=O)cc(-c3cccc(F)c3)[nH]c2n1", "OVCAR-3 ovarian cancer cell line", "satisfied"),
    ("COc1ccc(-c2cc(=O)c3cccnc3[nH]2)cc1", "OVCAR-3 ovarian cancer cell line", "not satisfied"),
    ("COc1ccccc1-c1cc(=O)c2cc(C)cnc2[nH]1", "OVCAR-3 ovarian cancer cell line", "not satisfied"),
]

Proceed to the following item.
Take the compound Cc1ccc2c(=O)cc(-c3cccc(Cl)c3)[nH]c2n1 and say whether its GI50 is less than 20 nM. satisfied

###

test system: OVCAR-3 ovarian cancer cell line
Entry class follows GI50: interval 1 (below 200 nM), interval 2 (200 nM to below 10000 nM), interval 3 (10000 nM or more)

Sample answers from the record:
# smiles.structure, label
rows = [
    ("COc1cccc(-c2cc(=O)c3c(C)ccnc3[nH]2)c1", "interval 1"),
    ("Cc1cnc2c(c1)C(=O)CC(c1ccc3ccccc3c1)=N2", "interval 2"),
    ("COc1cccc(-c2cc(=O)c3ccc(C)nc3[nH]2)c1", "interval 1"),
    ("COc1ccccc1-c1cc(=O)c2c(C)ccnc2[nH]1", "interval 3"),
    ("COc1cccc(-c2cc(=O)c3cccnc3[nH]2)c1", "interval 1"),
    ("Cc1cccc(C2=Nc3nc(C)cc(C)c3C(=O)C2)c1", "interval 3"),
    ("COc1cccc(-c2cc(=O)c3cc(Cl)cnc3[nH]2)c1", "interval 2"),
    ("O=C1CC(c2ccc3ccccc3c2)=Nc2ncccc21", "interval 2"),
]

Which class does Cc1ccnc2c1C(=O)CC(c1cccc3ccccc13)=N2 fall in? interval 1

Which class does Cc1cc(C)c2c(n1)N=C(c1ccc(Cl)cc1)CC2=O fall in? interval 3

Which class does COc1ccc(C2=Nc3nc(C)ccc3C(=O)C2)cc1 fall in? interval 3

Which class does COc1ccc(-c2cc(=O)c3c(C)ccnc3[nH]2)cc1 fall in? interval 3

Which class does Cc1cccc(-c2cc(=O)c3cccnc3[nH]2)c1 fall in? interval 1

Which class does COc1cccc(-c2cc(=O)c3cc(C)cnc3[nH]2)c1 fall in? interval 1

###

system: OVCAR-3 ovarian cancer cell line
Form field: GI50 (one value per entry).

# smiles.structure, GI50
records = [
    ("Cc1cc(C)c2c(=O)cc(-c3ccc4ccccc4c3)[nH]c2n1", "20 µM"),
]

Enter recorded GI50 with OVCAR-3 ovarian cancer cell line for COc1ccccc1-c1cc(=O)c2ccc(C)nc2[nH]1 here. > 100 µM

Enter recorded GI50 with OVCAR-3 ovarian cancer cell line for O=C1CC(c2ccc(F)cc2)=Nc2ncc(Cl)cc21 here. 17.4 µM

Enter recorded GI50 with OVCAR-3 ovarian cancer cell line for Cc1cc(C)c2c(n1)N=C(c1ccc(F)cc1)CC2=O here. 43.7 µM

Enter recorded GI50 with OVCAR-3 ovarian cancer cell line for O=C1CC(c2ccc(F)cc2)=Nc2ncccc21 here. 45.7 µM
